Origin of the recorded values: PubChem BioAssay AID1209

Biological target: Mannose-6-phosphate isomerase (Homo sapiens) (UniProt P34949)
Sequence (P34949 whole entry, looked up): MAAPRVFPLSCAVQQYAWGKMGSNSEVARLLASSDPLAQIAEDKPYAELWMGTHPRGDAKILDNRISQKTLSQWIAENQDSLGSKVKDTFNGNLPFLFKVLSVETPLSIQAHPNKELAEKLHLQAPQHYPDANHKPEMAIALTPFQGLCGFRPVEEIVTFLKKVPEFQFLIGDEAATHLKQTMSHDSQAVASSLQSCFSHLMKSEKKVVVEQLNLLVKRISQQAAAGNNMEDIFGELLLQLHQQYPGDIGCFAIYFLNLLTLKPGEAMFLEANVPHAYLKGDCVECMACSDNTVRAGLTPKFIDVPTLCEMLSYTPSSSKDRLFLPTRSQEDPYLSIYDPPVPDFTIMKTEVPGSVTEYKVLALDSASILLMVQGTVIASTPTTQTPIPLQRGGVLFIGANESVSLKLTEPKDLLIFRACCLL
Assay: inhibitors of human PMI, primary screen, biochemical, fluorescence intensity, coupled assay (AID 1209);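 note: plate controls were DMSO vehicle for no effect and wells lacking substrate for full effect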
Settings: purified PMI enzyme, at 20 µM, hits give high values
Out of some 190,000 compounds screened, about 810 (0.43%) were called active. This excerpt belongs to a sample that is enriched for actives.
Decision: inhibition compared against 10%; not below it gives 1 (yes), below it gives 0 (no).

[
  {
    "chemical-structure": "COC(=O)c1c(NC(=S)Nc2ccc(F)cc2[N+](=O)[O-])sc2c1CCCCC2",
    "assigned-label": "1 (yes)"
  },
  {
    "chemical-structure": "Cc1cccc(/C(N)=N/OC(=O)c2ccc(Br)o2)c1",
    "assigned-label": "1 (yes)"
  },
  {
    "chemical-structure": "Cc1cc(C)n2nc(SCCOc3ccccc3F)nc2n1",
    "assigned-label": "0 (no)"
  },
  {
    "chemical-structure": "CCc1cccc2c(C(=O)Cn3nnc(-c4ccc(OC)c(OC)c4)n3)c[nH]c12",
    "assigned-label": "1 (yes)"
  },
  {
    "chemical-structure": "C/C=C/c1c(F)c(F)c(Oc2ccc(C(=O)O)cc2)c(F)c1F",
    "assigned-label": "0 (no)"
  },
  {
    "chemical-structure": "COC(=O)c1c(NC(=S)Nc2cc(OC)c(Cl)cc2OC)sc2c1CCCCC2",
    "assigned-label": "1 (yes)"
  },
  {
    "chemical-structure": "Cc1cc(C(=O)N/N=C/c2ccc(O)c([N+](=O)[O-])c2)n[nH]1",
    "assigned-label": "0 (no)"
  },
  {
    "chemical-structure": "CCOC(=O)NC1(NCC(C)C)Oc2ccccc2O1",
    "assigned-label": "1 (yes)"
  },
  {
    "chemical-structure": "COc1cc2c(C(=O)OCCN(C)C)c(CSc3ccccc3)n(C)c2cc1Br",
    "assigned-label": "0 (no)"
  }
]

* * *

Each record here notes measured inhibition.
Target: Mannose-6-phosphate isomerase (Homo sapiens) (UniProt P34949)
Assay: inhibitors of human PMI, primary screen, biochemical, fluorescence intensity, coupled assay (AID 1209);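 note: plate controls were DMSO vehicle for no effect and wells lacking substrate for full effect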
Conditions: purified PMI enzyme, at 20 µM, hits give high values
About 810 (0.43%) of roughly 190,000 compounds were called active. Many of the other results were omitted from the sample, so actives are more common in it than they were.

[
  {
    "compound": "O=C(COc1cccnc1[N+](=O)[O-])N1CCN(C(=O)c2ccco2)CC1",
    "inhibition (%)": 57.6
  },
  {
    "compound": "Cc1ccc(NC(=O)c2ccc(Br)o2)cc1S(=O)(=O)N(C)C",
    "inhibition (%)": -19
  },
  {
    "compound": "COc1ccc(N2CCC(CNC(=O)Nc3ccccc3)C2)cc1 (stereo unspecified)",
    "inhibition (%)": 74.5
  },
  {
    "compound": "Nc1ccc2nc[nH]c2c1",
    "inhibition (%)": -17.5
  },
  {
    "compound": "O=C(NCc1ccco1)c1cnn2c1NC(c1ccc(Br)cc1)CC2C(F)(F)F (stereo unspecified)",
    "inhibition (%)": 27
  },
  {
    "compound": "O=C(N/N=C/c1ccccc1)c1[nH]c2ccc(Br)cc2c1-c1ccccc1",
    "inhibition (%)": 15.4
  },
  {
    "compound": "O=C(CSc1ccc2ccccc2c1)NCCc1ccc(O)c(O)c1",
    "inhibition (%)": 52.6
  },
  {
    "compound": "CSc1ccc(/C=C/C(=O)c2ccc(NC(=O)Cc3ccccc3)cc2)cc1",
    "inhibition (%)": 15.3
  },
  {
    "compound": "CN1CCN(C(=O)c2sc(=S)n(-c3ccccc3)c2N)CC1",
    "inhibition (%)": 2.8
  },
  {
    "compound": "COC(=O)C(C(C)=O)C1=C/C(=N\\S(=O)(=O)c2ccc(C)cc2)c2ccccc2C1=O (stereo unspecified)",
    "inhibition (%)": 22.1
  },
  {
    "compound": "COc1ccc(N2CCC(CNC(=O)Nc3cccc(OC)c3)C2)cc1 (stereo unspecified)",
    "inhibition (%)": 70
  },
  {
    "compound": "O=C(COc1cccnc1[N+](=O)[O-])N1CCN(S(=O)(=O)c2ccccc2)CC1",
    "inhibition (%)": 12.8
  },
  {
    "compound": "O=C(COc1ccccc1O)N1CCN(C(=O)c2ccco2)CC1",
    "inhibition (%)": 4
  },
  {
    "compound": "COc1ccc(NC(=S)NCC2CCN(c3ccc(OC)cc3)C2)cc1 (stereo unspecified)",
    "inhibition (%)": 49.3
  },
  {
    "compound": "Nc1c(C(=O)N2CCCCC2)sc(=S)n1-c1ccccc1",
    "inhibition (%)": 57.7
  },
  {
    "compound": "Cc1ccc(-n2c(N)c(C(=O)N3CCOCC3)sc2=S)cc1",
    "inhibition (%)": 36.2
  },
  {
    "compound": "CCn1c(N)c(C(=O)N2CCOCC2)sc1=S",
    "inhibition (%)": 8.6
  },
  {
    "compound": "COc1ccc(CCNC(=O)CN2CCN(c3cccc(C(F)(F)F)c3)CC2)cc1",
    "inhibition (%)": 3.1
  },
  {
    "compound": "O=S(=O)(Nc1cc(Sc2cccc3cccnc23)c(O)c2ccccc12)c1ccc(F)cc1",
    "inhibition (%)": 2.1
  },
  {
    "compound": "COc1cccc(N(CC(=O)N2CCN(C)CC2)S(=O)(=O)c2ccccc2)c1",
    "inhibition (%)": 2.4
  },
  {
    "compound": "COc1ccc(N2CCC(CNC(=O)Nc3ccc(C)c(C)c3)C2)cc1 (stereo unspecified)",
    "inhibition (%)": 43.1
  }
]
